- target.or.test.system: N2.7
- assay.protocol: FP
Where no end group is shown, it is not given here.
measurement.type: Kd
Could you give the number and then its unit, please?

Incoming: // query Kd value for entry GYQDYEPEA (also: TAMRA fluorophore, position not given here) [TAMRA-labeled α-synuclein peptide]
Outgoing: 15.1 nM
